molecular target: human 19S RP (Homo sapiens, UniProt P54578+Q9Y5K5); assay: De-ubiquitinase activity assay, Ub-AMC cleavage by 19S RP; details: read-out: IC50, DUB activity by detection of Ub-AMC cleavage
Outcome measure: IC50 (nM)
Numeric only. Scale: nM

Entry under review: C=CC(=O)N1C/C(=C\c2ccc([N+](=O)[O-])cc2)C(=O)/C(=C/c2ccc([N+](=O)[O-])cc2)C1 . Reported IC50?
2100
